Parameter IC50: see the listing below.
Biological target: PTP SHP2 (Homo sapiens, UniProt Q06124)
Construct: The catalytic domain was amplified using the following oligonucleotides; made in house; host or cells: Sf-9 insect cells (pFastBac-G2T)
Sequence (Q06124 247-517 limits assumed): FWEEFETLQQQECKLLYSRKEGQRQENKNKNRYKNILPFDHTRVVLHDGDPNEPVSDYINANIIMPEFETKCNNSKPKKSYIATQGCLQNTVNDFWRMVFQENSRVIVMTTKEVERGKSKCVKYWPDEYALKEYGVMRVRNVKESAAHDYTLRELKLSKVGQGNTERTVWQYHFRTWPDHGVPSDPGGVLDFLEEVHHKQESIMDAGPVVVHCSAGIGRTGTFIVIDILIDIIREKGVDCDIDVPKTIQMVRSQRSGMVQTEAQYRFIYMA
Assay: PTP IC50 assay, fluorescent substrate DiFMUP
Format: biochemical
Details: DiFMUP as substrate, 25° C.; read-out: PTP IC50 SHP2

compound | unit name | qualifier | IC50
CCCCNC(=O)C(c1ccc(S(=O)(=O)C(F)(F)F)cc1)N(Cc1ccccc1)C(=O)c1ccccc1 (centres unmarked) | µM | = | 22.7
CCn1c(-c2ccc(C(=O)Nc3ccc(OC)cc3)cc2)nc2cc(S(=O)(=O)C(F)(F)F)ccc21 | µM | = | 1.1
O=C(O)c1ccc2cc(CN(Cc3ccc4cc(C(=O)O)ccc4c3)S(=O)(=O)C(F)(F)F)ccc2c1 | µM | = | 25.9
O=C(O)c1cc2cc(NS(=O)(=O)C(F)(F)F)ccc2[nH]1 | µM | > | 100
CCNC(=O)c1ccc(-c2nc3cc(S(=O)(=O)C(F)(F)F)ccc3n2CC)cc1 | µM | = | 19

---

Target: PTP 1B (Homo sapiens)
Construct: made in house; host or cells: Sf-9 insect cells (pFastBac-G2T)
Sequence (P18031 1-435): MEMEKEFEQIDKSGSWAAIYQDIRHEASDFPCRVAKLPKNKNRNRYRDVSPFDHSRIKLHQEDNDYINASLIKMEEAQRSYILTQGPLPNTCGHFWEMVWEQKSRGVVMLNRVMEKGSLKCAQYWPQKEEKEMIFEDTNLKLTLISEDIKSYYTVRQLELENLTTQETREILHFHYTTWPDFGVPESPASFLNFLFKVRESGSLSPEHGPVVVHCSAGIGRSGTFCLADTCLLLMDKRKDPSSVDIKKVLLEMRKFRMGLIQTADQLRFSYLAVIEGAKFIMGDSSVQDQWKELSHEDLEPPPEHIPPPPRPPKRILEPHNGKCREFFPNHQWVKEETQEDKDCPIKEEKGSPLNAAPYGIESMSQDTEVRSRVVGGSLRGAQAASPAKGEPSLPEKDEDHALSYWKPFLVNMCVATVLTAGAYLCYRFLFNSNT
Assay: PTP IC50 assay, fluorescent substrate DiFMUP
Assay type: biochemical

compound | unit name | qualifier | IC50
O=[N+]([O-])c1cc(S(=O)(=O)C(F)(F)F)ccc1Oc1ccc(S(=O)(=O)c2ccc(Oc3ccc(S(=O)(=O)C(F)(F)F)cc3[N+](=O)[O-])cc2)cc1 [Example 63] | µM | = | 0.7
O=[N+]([O-])c1ccccc1NCC(COc1ccc(S(=O)(=O)C(F)(F)F)cc1[N+](=O)[O-])Oc1ccc(S(=O)(=O)C(F)(F)F)cc1[N+](=O)[O-] (stereo not drawn) [Example 57] | µM | > | 20
O=[N+]([O-])c1ccc(NCC(COc2ccc(S(=O)(=O)C(F)(F)F)cc2[N+](=O)[O-])Oc2ccc(S(=O)(=O)C(F)(F)F)cc2[N+](=O)[O-])cc1 (stereo not drawn) [Example 59] | µM | = | 0.9
